test system: Phakopsora pachyrhizi (F129L); assay: Protective control of soybean rust on soybeans (PHAKPA P6); format: in vivo; details: protective P6, 16 ppm, soybean rust F129L isolate
Consider the cut-off 1%. If the recorded % PHAKPA (F129L) Disease level P6 at 16 ppm is strictly smaller, the label is yes (1); if not, the label is no (0).

is_below(% PHAKPA (F129L) Disease level P6 at 16 ppm, 1%) for `CNC(=O)/C(=N/OC)c1cccc(C)c1CO/N=C(\C)c1ccc(C)c(C(F)(F)F)c1` ? no (0)

Then what about the compound `CO/N=C(/C(=O)OC)c1cccc(C)c1CO/N=C(\C)c1ccc(OC)cc1C(F)(F)F` ? no (0)

Likewise for `CO/N=C(/C(=O)OC)c1cccc(C)c1CO/N=C(\C)c1c(F)cc(F)cc1C(F)(F)F` ? no (0)

And `CNC(=O)/C(=N/OC)c1cccc(C)c1CO/N=C(\C)c1c(F)cc(F)cc1C(F)(F)F` ? yes (1)

Also `CNC(=O)/C(=N/OC)c1cccc(C)c1CO/N=C(\CC(F)(F)F)c1cc(Cl)cc(Cl)c1` ? no (0)

`CNC(=O)/C(=N/OC)c1cccc(C)c1CO/N=C(\C)c1c(F)ccc(C(F)(F)F)c1NC` ? no (0)
